Just for reference, patent US20170296650A1 is where these values come from.

# SYSTEM: T1, hCMV glycoprotein B (gB; HEK293T transfectant) (hCMV, UniProt P06473 32-906)
# T1 construct: whole, on cells; in the functional rows it stands for gB on virions or transduced cells of the strain or isolate named in the readout
# T1 sequence (P06473 32-906 limits assumed): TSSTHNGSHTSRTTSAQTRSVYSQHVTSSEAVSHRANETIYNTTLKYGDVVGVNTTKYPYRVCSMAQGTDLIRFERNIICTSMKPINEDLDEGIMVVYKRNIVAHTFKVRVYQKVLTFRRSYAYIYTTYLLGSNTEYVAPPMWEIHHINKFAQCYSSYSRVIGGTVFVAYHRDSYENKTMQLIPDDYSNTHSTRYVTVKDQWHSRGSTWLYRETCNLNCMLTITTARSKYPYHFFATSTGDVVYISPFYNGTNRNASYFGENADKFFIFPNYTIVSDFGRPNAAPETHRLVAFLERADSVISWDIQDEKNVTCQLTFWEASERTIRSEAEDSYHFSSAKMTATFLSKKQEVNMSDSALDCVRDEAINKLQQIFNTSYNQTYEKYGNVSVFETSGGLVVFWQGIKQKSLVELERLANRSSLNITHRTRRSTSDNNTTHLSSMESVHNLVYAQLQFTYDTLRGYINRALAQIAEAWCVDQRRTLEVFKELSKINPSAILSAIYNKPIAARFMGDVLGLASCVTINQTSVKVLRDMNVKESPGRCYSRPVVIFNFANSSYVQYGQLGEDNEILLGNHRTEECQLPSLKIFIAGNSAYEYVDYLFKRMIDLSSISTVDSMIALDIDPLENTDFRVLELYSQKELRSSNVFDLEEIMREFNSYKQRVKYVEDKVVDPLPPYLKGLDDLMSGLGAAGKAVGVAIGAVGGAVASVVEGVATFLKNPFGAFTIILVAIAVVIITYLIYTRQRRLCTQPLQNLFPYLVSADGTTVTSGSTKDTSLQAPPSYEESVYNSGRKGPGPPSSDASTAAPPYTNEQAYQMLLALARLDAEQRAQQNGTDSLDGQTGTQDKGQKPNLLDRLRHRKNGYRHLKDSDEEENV
# EXPERIMENT SUMMARY: cell competition; competitor 6B4-biotin
RECORDED ENDPOINT: Inhibition of binding (%)

5F1 (antibody, V domains shown, human IgG; also called 5F1-biotin) VH: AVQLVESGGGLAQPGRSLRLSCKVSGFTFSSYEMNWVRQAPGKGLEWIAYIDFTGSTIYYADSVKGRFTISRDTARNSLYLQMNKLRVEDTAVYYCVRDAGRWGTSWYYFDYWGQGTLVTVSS VL: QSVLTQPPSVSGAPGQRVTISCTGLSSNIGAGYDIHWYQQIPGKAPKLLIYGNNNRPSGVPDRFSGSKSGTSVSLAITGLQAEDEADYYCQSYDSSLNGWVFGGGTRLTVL
0%

GET /values?readout=Inhibition of binding (%)&item= 4H9 (antibody, V domains shown, human IgG; also called 4H9-biotin; 4H9.6) VH: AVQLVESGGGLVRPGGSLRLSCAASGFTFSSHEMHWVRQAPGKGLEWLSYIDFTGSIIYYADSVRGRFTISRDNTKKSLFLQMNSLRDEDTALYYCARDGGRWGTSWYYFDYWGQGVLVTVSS VL: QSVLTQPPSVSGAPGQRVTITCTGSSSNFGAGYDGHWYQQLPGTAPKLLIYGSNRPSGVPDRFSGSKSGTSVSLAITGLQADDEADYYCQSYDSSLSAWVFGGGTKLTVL
0%

Check 6B4 (antibody, V domains shown, human IgG; also called 6B4-biotin) VH: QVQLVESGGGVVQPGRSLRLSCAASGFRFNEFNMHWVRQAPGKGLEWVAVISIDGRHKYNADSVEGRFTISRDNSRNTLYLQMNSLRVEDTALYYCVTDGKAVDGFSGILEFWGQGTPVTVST VL: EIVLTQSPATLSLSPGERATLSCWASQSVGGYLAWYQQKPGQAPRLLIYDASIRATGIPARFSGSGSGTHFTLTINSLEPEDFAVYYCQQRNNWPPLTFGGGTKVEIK too.
100%
